Test system: ACHN renal
experiment: NCI-60 one-dose screen, 48 h
condition_info: 10 µM unless noted
About 83,000 compounds went through this panel and 20% of them were active in at least one assay; those are over-represented in the sample as a whole. Active and inactive are the calls of the source. Rule for the calls: active = growth percent below 10; inactive = the rest.
Use one of these outcomes when replying: active, inactive

COc1cccc(-c2cc(C(=O)Nc3ccc(/C=C/c4ccc(OC5CCN(C)CC5)cc4)cc3)ccc2OC)c1 :: inactive
O=C(CCN1CCCC1)c1ccc([N+](=O)[O-])cc1 :: inactive
CCOc1ccc(/C=N/Nc2cc(C)nc3ccc(Br)cc23)cc1 :: inactive
Cn1cc(-c2nc(-c3c[nH]c4c(Cl)nccc34)cs2)c2cc(Br)ccc21 :: inactive

# input Recorded call for `Cc1cccc(NC(=O)Nc2ccc(-n3cnc4cc(-c5ccc(O)cc5)ccc43)cc2)c1` ?
# output inactive

# input Call for entry `COc1cc(CC(=O)n2ncc3ccc(N)cc32)cc(OC)c1OC` :
# output inactive

# input # lookup: test call for `Cc1nc2ccc(Cl)cn2c1-c1nnc(SCc2ccc([N+](=O)[O-])cc2)o1`
# output inactive

# input Test call, this compound: `NNC(=O)c1ccc(-n2nc(-c3ccccc3)c3ccccc32)cc1`
# output inactive

# input Please state the recorded outcome for this compound: `COc1cc(C2=C(c3cn(C)c4ccccc34)COC2=O)cc(OC)c1OC`
# output inactive

# input In this assay, the call recorded for `N#C/C(=C\c1ccc([N+](=O)[O-])s1)c1nc2cc(Cl)ccc2s1` was what?
# output active

# input Assay result, entry `O=C(NNc1nc2c(F)cccc2n2cccc12)c1cnccn1` — outcome?
# output active
